molecular target: Granzyme B (Homo sapiens); assay: Inhibition against human granzyme B
Sequence (P10144 whole entry): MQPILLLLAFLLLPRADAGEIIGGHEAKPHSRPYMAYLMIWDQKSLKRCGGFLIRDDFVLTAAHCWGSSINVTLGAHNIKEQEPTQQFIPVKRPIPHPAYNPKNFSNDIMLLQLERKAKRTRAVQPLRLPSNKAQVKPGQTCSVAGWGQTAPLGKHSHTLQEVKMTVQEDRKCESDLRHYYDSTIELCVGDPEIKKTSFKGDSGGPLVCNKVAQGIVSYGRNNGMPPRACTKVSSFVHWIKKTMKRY
Residues, ends and D or L forms follow the SMILES beside them.
quantity: Ki (nM)

>>> endpoint_value("CC[C@H](C)[C@H](NC(C)=O)C(=O)NCC(=O)N1c2ccccc2C[C@H]1C(=O)N[C@H](C=O)CC(=O)O")
13
>>> endpoint_value("CC[C@H](C)[C@@H](C(=O)N[C@H]1CCc2cccc3c2N(C1=O)[C@H](C(=O)NCc1cc(=O)[nH]o1)C3)N(C)C(C)=O")
360
>>> endpoint_value("CC[C@H](C)[C@H](NC(=O)Cc1ccccc1)C(=O)N[C@H]1CCc2cccc3c2N(C1=O)[C@H](C(=O)NCc1cn[nH]c1)C3")
13

P = CC[C@H](C)[C@@H](C(=O)N[C@H]1CCc2cccc3c2N(C1=O)[C@H](C(=O)NCCC(=O)O)C3)N(C)C(C)=O
Q = CC[C@H](C)[C@H](NC(C)=O)C(=O)N[C@H]1CC[C@H]2CC[C@@H](C(=O)N[C@H](C=O)CC(=O)O)N2C1=O
Task: Which shows the larger Ki value: P or Q ? Answer format: the label of the selected item.
Result: P
(P: 580 nM, Q: 122 nM)

I = CC[C@H](C)[C@H](NC(C)=O)C(=O)Nc1cccn(CC(=O)N[C@H](C=O)CC(=O)O)c1=O
II = CC[C@H](C)[C@@H](C(=O)N[C@H]1CCc2cccc3c2N(C1=O)[C@H](C(=O)NCc1nnn[nH]1)C3)N(C)C(C)=O
III = CC[C@H](C)[C@H](NC(=O)Cc1csc2ccccc12)C(=O)N[C@H]1CCc2cccc3c2N(C1=O)[C@H](C(=O)NCc1cn[nH]c1)C3
Task: # rank_down: sort by Ki, max first Use the labels to give the ranking in the order requested.
Result: I, II, III

I = CC[C@H](C)[C@H](NC(C)=O)C(=O)NCC(=O)N1CCC[C@H]1C(=O)N[C@H](C=O)CC(=O)O (Ac-IGPD-aldehyde)
II = CC[C@H](C)[C@@H](C(=O)N[C@H]1CCc2cccc3c2N(C1=O)[C@H](C(=O)N[C@@H](CC(=O)O)C(=O)C(=O)OC)C3)N(C)C(C)=O
Task: Could you tell me which of I and II has the lower Ki reading? Answer format: the label of the selected item.
Result: II
(II: 16 nM, I: 270 nM)

meta.source: ChEMBL document CHEMBL1134869
